Experiment: gradient 5% acetonitrile 3 min, to 50% in 2 min, to 85% in 15 min, held 3 min, 100 µL/min
Details: column: Zorbax Extend-C18 2.1 x 50 mm; eluents: water / acetonitrile, 0.1% formic acid
Assay Metric: RP-LC retention time

Check out these entries, answers already filled in.
[
  {
    "Molecule": "Cc1cccc(-c2nc3ccccn3c2NC(=O)NCc2ccc(F)cc2)c1",
    "Recorded Measurement": "714 s"
  },
  {
    "Molecule": "CCOC(=O)c1cc(-c2ccccc2)n(CCC(=O)N2CCN(c3ccccn3)CC2)c1C",
    "Recorded Measurement": "715 s"
  }
]

Query :: Tell me measured RP-LC retention time for CN(C)c1ccc(/C=C2\SC(=O)N(CC(=O)Nc3ccccc3C(F)(F)F)C2=O)cc1 please.
Result :: 992 s

Query :: Please give the documented RP-LC retention time of COc1ccc(NC(=O)CCc2c(C)nn(-c3cc(N(C)C)ncn3)c2C)c(OC)c1
Result :: 776 s

Query :: Consider the molecule O=C(C1=CN(c2cccc(Cl)c2)c2cc(F)ccc2S1(=O)=O)N1CCOCC1 . State its measured RP-LC retention time.
Result :: 811 s

Query :: Annotate the molecule CCCCCn1c(=O)c2ccccc2n(Cc2nc(-c3cc(OC)c(OC)c(OC)c3)no2)c1=O with its measured RP-LC retention time.
Result :: 646 s

Query :: Given the molecule COCCNC(=O)CSc1nccnc1Oc1ccc(C)cc1 , write its reported RP-LC retention time.
Result :: 798 s

Query :: Return reported RP-LC retention time. Input molecule: Cc1cc(C)cc(C(=O)N2CCC(n3c(-c4ccco4)nc4cccnc43)C2)c1 (centres undefined)
Result :: 825 s

Query :: Using known records, supply RP-LC retention time for O=S(=O)(c1ccc(Cl)c(-c2nnc(-c3ccccc3)o2)c1)N1CCOCC1
Result :: 946 s

---

Measured RP-LC retention time, listed per entry for reference.
Assay: gradient 5% acetonitrile 3 min, to 50% in 2 min, to 85% in 15 min, held 3 min, 100 µL/min
Conditions: column: Zorbax Extend-C18 2.1 x 50 mm; eluents: water / acetonitrile, 0.1% formic acid
Give the number; s is assumed, so skip it.

[
  {
    "Compound": "Clc1ccccc1-c1noc(Cc2nc(-c3ccc4c(c3)OCO4)cs2)n1",
    "Recorded Measurement": 1140
  },
  {
    "Compound": "CCc1cc(=O)n(Cc2cccc(F)c2)c(N2CCOCC2)n1",
    "Recorded Measurement": 909
  },
  {
    "Compound": "Cc1ccc(CNC(=O)Cc2nnc(-c3ccccn3)o2)cc1",
    "Recorded Measurement": 692
  },
  {
    "Compound": "Cc1cc(C)cc(NC(=O)Cn2cnc3c(sc4nc(-c5ccccc5)ccc43)c2=O)c1",
    "Recorded Measurement": 1100
  },
  {
    "Compound": "O=C(NCc1cccc(Cl)c1)C1c2ccccc2CCN1C(=O)C1CC1 (centres undefined)",
    "Recorded Measurement": 838
  }
]

Query :: Provide RP-LC retention time value for the following compound: CCOc1cccc(C2c3[nH]c4ccccc4c3CCN2C(=O)c2cccnc2)c1 (centres undefined)
Result :: 968

Query :: Supply recorded RP-LC retention time for Cc1ccc(-c2nnc(CC(=O)NC(C)CCc3ccccc3)o2)cc1 (centres undefined) here.
Result :: 840

Query :: Read off the recorded RP-LC retention time for CCOC(=O)c1c(S(=O)(=O)N2CCC(C(=O)Nc3ccc(F)c(Cl)c3)CC2)c(C)n(C)c1C
Result :: 935

Query :: For the compound Cc1nc2cc(N3CCCC(C(=O)Nc4ccc(N5CCOCC5)cc4)C3)cnc2nc1C (centres undefined) , report RP-LC retention time.
Result :: 658
